- assaySummary: ATG_VDRE_CIS: Attagene CIS-FACTORIAL HepG2 Assay for human Vitamin D Receptor Element (VDRE) (AID 2282968)
- experimentalParameters: HepG2 VDRE cis-reporter transcription, actives raise or lower the signal
Calls of active or inactive are those of the source. The calls were made as follows: active = hit-call score of the fitted dose curve at least 0.9, where 1 is the maximum; inactive = score below 0.9.
Outcomes: 1 for active, 0 for inactive

> print(dat)
                                   compound  classassignment
1                      CC(C)C(=O)OCc1ccccc1                0
2  C[C@]12CC[C@H]3C(=CCc4cc(O)ccc43)[C@@H]1CCC2=O                0
3  CN(C(=O)C(F)(F)C(F)(F)C(F)(F)F)[Si](C)(C)C                0
4  CC(O)C#CC(C)O (configuration not stated)                1
5  O=C(O)C(F)(F)C(F)(F)C(F)(F)OC(F)(C(F)(F)F)C(F)(F)F                0
6                              CCOC(OCC)OCC                0
7            O=C1c2ccccc2C(=O)c2c(Cl)cccc21                0
